A collection of compounds and their measured pEC50
System: HIV-1 LAI envelope single-round infectious reporter virus
test-details: Single-round infectious luciferase reporter virus (HIV-1 LAI envelope) infection of MT2 cells
Type: cell-based
reported-conditions: Human immunodeficiency virus 1, MT2, 72 h
pEC50: −log10 of the molar value.

- compound: "COc1cnc(-n2ccnn2)c2[nH]cc(C(=O)C(=O)N3CCC4(CC3)CC4(c3ccccc3)c3nnc(C)o3)c12 (stereo not shown)"
  pEC50: 9.12
- compound: "N#CC(c1ccccc1)C1CCN(C(=O)C(=O)c2c[nH]c3c(-n4ccnn4)ncc(F)c23)CC1 (stereo not shown)"
  pEC50: 9.70
- compound: "O=C(C(=O)N1CCC(C(=O)c2ccccc2)CC1)c1c[nH]c2ccccc12"
  pEC50: 5.46
- compound: "COc1cnc(-n2cnc(C)n2)c2[nH]cc(C(=O)C(=O)N3CCC4(CC3)CC4(C#N)c3ccccc3)c12 (stereo not shown)"
  pEC50: 8.60

The reported numbers originate from patent US9505752B2.
